Some compounds, each annotated with its measured pKd.
# measured_target: proMMP9(20-445;ΔFnII) (SEQ ID NO:6) (Homo sapiens, UniProt P14780, DEL216-390)
# Construct: start methionine (N)
# Sequence (P14780 with tags, fused parts or gaps DEL216-390): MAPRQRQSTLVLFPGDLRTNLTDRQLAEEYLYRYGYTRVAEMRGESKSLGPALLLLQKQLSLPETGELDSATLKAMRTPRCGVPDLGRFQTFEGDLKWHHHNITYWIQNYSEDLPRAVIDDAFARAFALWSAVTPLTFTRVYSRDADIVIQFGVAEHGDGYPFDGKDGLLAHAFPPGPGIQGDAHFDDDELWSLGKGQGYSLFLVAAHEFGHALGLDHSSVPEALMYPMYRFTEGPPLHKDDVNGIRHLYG
# assay_overview: ThermoFluor binding assay with proMMP9(20-445;ΔFnII)
Worth noting: pKd values are minus log10 of concentrations stated in mol/L.

compound	measured_target	observation_type	experimental_value
CC(C)Oc1ccc(C(N)=O)cc1Nc1nc2c(ccc3c2cnn3C)s1 [Example 30]	proMMP9(20-445;ΔFnII) (SEQ ID NO:6) (Homo sapiens, UniProt P14780, DEL216-390)	pKd	6.92

Form: compound = COc1ccc(S(C)(=O)=O)cc1Nc1nc2c(ccc3c2ncn3C)s1 [Example 52] ; pKd = 5.85

Form: compound = CC(C)Oc1ccc(C(N)=O)cc1Nc1nc2c(ccc3[nH]cnc32)s1 [Example 29] ; pKd = 6.10

Form: compound = COc1ccc(S(=O)(=O)N(C)C)cc1Nc1nc2c(ccc3c2ncn3C)s1 [Example 55] ; pKd = 5.17

Form: compound = COc1ccc(-c2cn[nH]c2)cc1Nc1nc2c(ccc3c2ncn3C)s1 [Example 70] ; pKd = 6.25

Form: compound = Cn1cnc2c3nc(Nc4ccccc4OC(F)(F)F)sc3ccc21 [Example 58] ; pKd = 5.59
